Assay: Lipid nanoparticle size by dynamic light scattering (Malvern Zetasizer Nano ZS)
Assay type: physicochemical
Details: LNP: cationic lipid/DSPC/cholesterol/PEG-lipid 50:10:38.5:1.5, hEPO mRNA; Table 3
Entries and their size nm values follow.
Measure: size nm (nm)

{"Compound": "CCCCCCCCCCC(CCCCCC)COC(=O)CCCCCCN(CCCCCCC(=O)OCC(CCCCCC)CCCCCCCCCC)CCN(CCO)C1CCC1 (stereo not drawn)", "Measure": "size nm", "Units Of Measure": "nm", "Assay Result": 74.8}
{"Compound": "CCCCCCC(CCCCCC)CC(=O)NCCCCCN(CCCCCOC(=O)CC(CCCCCC)CCCCCC)CCN(CCO)C1CC1", "Measure": "size nm", "Units Of Measure": "nm", "Assay Result": 107.4}
{"Compound": "CCCCCCCCC(CCCCCC)CC(=O)COCCCCN(CCCCCOC(=O)CC(CCCCCC)CCCCCCCC)CCN(CCO)C1CCCC1 (stereo not drawn)", "Measure": "size nm", "Units Of Measure": "nm", "Assay Result": 74.3}
{"Compound": "CCCCCCCCC(CCCCCCCC)COC(=O)CCCCCN(CCCCCC(=O)OCC(CCCCCCCC)CCCCCCCC)CCN(CCO)C1CC(F)(F)C1", "Measure": "size nm", "Units Of Measure": "nm", "Assay Result": 52.19}
{"Compound": "CCCCCCCCC(CCCCCC)CNC(=O)CCCCCN(CCCCCC(=O)NCC(CCCCCC)CCCCCCCC)CCN(CCO)C1CCCCC1 (stereo not drawn) [Compound 129]", "Measure": "size nm", "Units Of Measure": "nm", "Assay Result": 63.13}
{"Compound": "CCCCCCCCC(CCCCCC)CNC(=O)CCCCCN(CCCCCC(=O)OCC(CCCCCC)CCCCCCCC)CCN(CCO)C1CC1 (stereo not drawn)", "Measure": "size nm", "Units Of Measure": "nm", "Assay Result": 73.52}

----------
Assay: Lipid nanoparticle size by dynamic light scattering (Malvern Zetasizer Nano ZS)
Assay type: physicochemical
Conditions: LNP: cationic lipid/DSPC/cholesterol/PEG-lipid 50:10:38.5:1.5, hEPO mRNA; Table 3
Given measured polydispersity, output yes if it is greater than or equal to 0.06 and no if not.

{"Molecule": "CCCCCCCCC(CCCCCC)C(=O)OCCCCCCCCCN(CCCCCCCCCOC(=O)C(CCCCCC)CCCCCCCC)CCN(CCO)C1CCC1 (centres unmarked) [Compound 44]", "Discrete Label": "yes"}
{"Molecule": "CCCCC(CCCC)CCCCCC(=O)OCCCCCN(CCCCCOC(=O)CCCCCC(CCCC)CCCC)CCN(CCO)C1CCC1 [Compound 85]", "Discrete Label": "yes"}
{"Molecule": "CCCCCCCCC(CCCCCC)COC(=O)CCCCCN(CCCCCC(=O)OCC(CCCCCC)CCCCCCCC)CCN(CCO)C1CCOC1 (centres unmarked) [Compound 90]", "Discrete Label": "yes"}
{"Molecule": "CCCCCCCCC(CCCCCC)COC(=O)CCCCCN(CCCCCC(=O)OCC(CCCCCC)CCCCCCCC)C(=O)CCN(CCO)C1CCC1 (centres unmarked) [Compound 12]", "Discrete Label": "no"}
{"Molecule": "CCCCCCCCC(CCCCCC)COC(=O)CCCCCN(CCCCCC(=O)OCC(CCCCCC)CCCCCCCC)CCN1CC(O)C1 (centres unmarked) [Compound 97]", "Discrete Label": "yes"}
{"Molecule": "CCCCCCCCC(CCCCCCCC)COC(=O)CCOCCN(CCOCCC(=O)OCC(CCCCCCCC)CCCCCCCC)CCN(CCO)C1CCCCC1 [Compound 104]", "Discrete Label": "no"}
{"Molecule": "CCCCCCCCC(CCCCCCCC)COC(=O)CCCCCN(CCCCCC(=O)OCC(CCCCCCCC)CCCCCCCC)CCN(CCO)C1CCC(F)(F)CC1 [Compound 78]", "Discrete Label": "yes"}
{"Molecule": "CCCCCCCCC(CCCCCC)CNC(=O)CCCCCN(CCCCCC(=O)NCC(CCCCCC)CCCCCCCC)CCN(CCO)C1CCCCC1 (centres unmarked) [Compound 129]", "Discrete Label": "yes"}
{"Molecule": "CCCCCCCCC(CCCCCC)CNC(=O)NCCCCN(CCCCNC(=O)NCC(CCCCCC)CCCCCCCC)CCN(CCO)C1CCC1 (centres unmarked) [Compound 121]", "Discrete Label": "yes"}
{"Molecule": "CCCCCCCCC(CCCCCC)CC(=O)COCCCCN(CCCCCOC(=O)CC(CCCCCC)CCCCCCCC)CCN(CCO)C1CC1 (centres unmarked) [Compound 24]", "Discrete Label": "yes"}
{"Molecule": "CCCCCCCCC(CCCCCC)COC(=O)CCCCCN(CCCCCC(=O)OCC(CCCCCC)CCCCCCCC)CCN(CCCCO)C1CCC1 (centres unmarked) [Compound 29]", "Discrete Label": "yes"}
{"Molecule": "CCCCCC/C=C\\COC(=O)CCCCCN(CCCC(=O)OC(CCCCCCC)CCCCCCC)CCN(CCO)C1CCC1 [Compound 46]", "Discrete Label": "yes"}
{"Molecule": "CCCCCCCCCCC(CCCCCCCCCC)COC(=O)CCCCCN(CCCCCC(=O)OCC(CCCCCCCCCC)CCCCCCCCCC)CCN(CCO)C1CCC1 [Compound 52]", "Discrete Label": "no"}
{"Molecule": "CCCCCCCCC(CCCCCC)CNC(=O)CCCCCN(CCCCCC(=O)OCC(CCCCCC)CCCCCCCC)CCN(CCO)C1CCCCC1 (centres unmarked) [Compound 127]", "Discrete Label": "yes"}
{"Molecule": "CCCCCCCCC(CCCCCC)COC(=O)NCCCCN(CCCCNC(=O)OCC(CCCCCC)CCCCCCCC)CCN(CCO)C1CCCC1 (centres unmarked) [Compound 125]", "Discrete Label": "yes"}
{"Molecule": "CCCCCCCCC(CCCCCC)COC(=O)CCCCN(CCCCC(=O)OCC(CCCCCC)CCCCCCCC)CCN(CCO)C1CCC1 (centres unmarked) [Compound 36]", "Discrete Label": "yes"}
{"Molecule": "CCCCCCCCCCCOC(=O)CCCCCN(CCCCCC(=O)NCC(CCCCCCCC)CCCCCCCC)CCN(CCO)C1CCCC1 [Compound 147]", "Discrete Label": "yes"}
{"Molecule": "CCCCCCCCC(CCCCCCCC)CC(=O)NCCCCCN(CCCCCOC(=O)CC(CCCCCCCC)CCCCCCCC)CCN(CCO)C1CCCCCC1 [Compound 145]", "Discrete Label": "no"}
{"Molecule": "CCCCCCCCC(CCCCCC)CNC(=O)CCCCCN(CCCCCC(=O)NCC(CCCCCC)CCCCCCCC)CCN(CCO)C1CCCCCC1 (centres unmarked) [Compound 112]", "Discrete Label": "yes"}
{"Molecule": "CCCCCCCCCC(CCCCCCCCC)COC(=O)CCCCCN(CCCCCC(=O)OCC(CCCCCCCCC)CCCCCCCCC)CCN(CCO)C1CCC1 [Compound 51]", "Discrete Label": "yes"}
{"Molecule": "CCCCCCCCC(CCCCCC)CC(=O)NCCCCCN(CCCCCOC(=O)CC(CCCCCC)CCCCCCCC)CCN(CCO)C1CCC1 (centres unmarked) [Compound 108]", "Discrete Label": "yes"}
{"Molecule": "CCCCCCCCCCCOC(=O)CCCCCN(CCCCCC(=O)OCC(CCCCCCCC)CCCCCCCC)CCN(CCO)C1CCC1 [Compound 81]", "Discrete Label": "no"}
{"Molecule": "CCCCCCCCC(CCCCCC)COC(=O)CCCCCN(CCCCCC(=O)OCC(CCCCCC)CCCCCCCC)CCN(C1CCC1)C1CCC(O)CC1 (centres unmarked) [Compound 93]", "Discrete Label": "no"}
{"Molecule": "CCCCCCCCC(CCCCCC)COC(=O)CCCCCN(CCCCCC(=O)OCC(CCCCCC)CCCCCCCC)CCN1CCC(O)CC1 (centres unmarked) [Compound 96]", "Discrete Label": "yes"}
{"Molecule": "CCCCCCCCC(CCCCCC)COC(=O)CCCCCN(CCCCCC(=O)OCC(CCCCCC)CCCCCCCC)CCN(CCCC)C1CCC(O)CC1 (centres unmarked) [Compound 58]", "Discrete Label": "yes"}
{"Molecule": "CCCCCCCCC(CCCCCC)CNC(=O)NCCCCN(CCCCNC(=O)NCC(CCCCCC)CCCCCCCC)CCN(CCO)C1CCCCC1 (centres unmarked) [Compound 122]", "Discrete Label": "no"}
